- TESTED_TARGET: kinase c-MET (Homo sapiens)
- Construct: purchased Carna 08-151
- Sequence (P08581 956-1390 limits assumed): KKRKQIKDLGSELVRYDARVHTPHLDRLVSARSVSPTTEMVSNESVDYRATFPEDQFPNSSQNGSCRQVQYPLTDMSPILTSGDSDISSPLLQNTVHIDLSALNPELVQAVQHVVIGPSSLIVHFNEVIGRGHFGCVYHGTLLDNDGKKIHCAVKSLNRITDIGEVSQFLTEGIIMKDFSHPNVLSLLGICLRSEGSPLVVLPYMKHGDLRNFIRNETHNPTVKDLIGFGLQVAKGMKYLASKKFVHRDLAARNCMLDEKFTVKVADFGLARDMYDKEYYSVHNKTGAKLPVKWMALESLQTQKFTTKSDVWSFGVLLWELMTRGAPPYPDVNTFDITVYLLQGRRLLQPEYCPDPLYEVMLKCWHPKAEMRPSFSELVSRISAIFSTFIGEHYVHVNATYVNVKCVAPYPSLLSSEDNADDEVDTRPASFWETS
- METHOD_DESCRIPTION: Mobility shift assay, inhibitory activity against kinase c-MET
- Assay type: biochemical
- ASSAY_CONDITIONS: ATP at Km (35 μM), average of two independent experiments
- Experimental: In this test, mobility shift assay was used to test the inhibitory activity of compounds when ATP concentrations correspond to the Km of the kinases. The concentration of test compound was 10-fold diluted from an initial concentration of 10 μM. The test result (IC50) was the average of two independent experiments. […] 5) The conversion rate was read by Caliper Reader (Perkin Elmer) and the inhibition rate was calculated as the average of two tests. […]
Form field: log10 of IC50 (one value per entry).
// units: nM (pre-log); metric: IC50; scale: log10

Here are 5 compounds together with their reported answers.
C=C(C)c1cc(C(=O)Nc2ccc(-c3cc(-c4cnn(C5CCNCC5)c4)cnc3N)c(F)c2)c(=O)n(-c2ccc(F)cc2)c1C#N : 1.36
COc1cc2nccc(Oc3ccc(NC(=O)c4cc(Br)c(O)n(-c5ccc(F)cc5)c4=O)cc3F)c2cc1OC [Example 29B] : 1.48
CC(C)n1cc(C(=O)Nc2ccc(-c3cc(-c4cnn(C5CCNCC5)c4)cnc3N)c(F)c2)c(=O)c(-c2ccc(F)cc2)c1C#N : 1.15
COc1ccc(-c2cnc(N)c(-c3ccc(NC(=O)c4cn(C(C)C)c(C#N)c(-c5ccc(F)cc5)c4=O)cc3F)c2)cc1OC : 2.12
COCc1c(C)cc(C(=O)Nc2ccc(Oc3ccnc4cc(OC)c(OC)cc34)c(F)c2)c(=O)n1-c1ccc(F)cc1 : 1.32

Q: Which log10 of IC50 reading was recorded for the compound CCn1cc(-c2cnc(N)c(-c3ccc(NC(=O)c4cc(C5CC5)c(C#N)n(-c5ccc(F)cc5)c4=O)cc3F)c2)cn1 ?
A: 1.91

Q: Which log10 of IC50 reading was recorded for the compound N#Cc1c(-c2ccc(F)cc2)c(=O)c(C(=O)Nc2ccc(-c3cc(-c4cnn(C5CCNCC5)c4)cnc3N)c(F)c2)cn1C1CC1 ?
A: 1.00

---

- TESTED_TARGET: tyrosine kinase Mer (Homo sapiens, UniProt Q12866)
- Construct: purchased Carna 08-108
- Sequence (Q12866 528-999 limits assumed): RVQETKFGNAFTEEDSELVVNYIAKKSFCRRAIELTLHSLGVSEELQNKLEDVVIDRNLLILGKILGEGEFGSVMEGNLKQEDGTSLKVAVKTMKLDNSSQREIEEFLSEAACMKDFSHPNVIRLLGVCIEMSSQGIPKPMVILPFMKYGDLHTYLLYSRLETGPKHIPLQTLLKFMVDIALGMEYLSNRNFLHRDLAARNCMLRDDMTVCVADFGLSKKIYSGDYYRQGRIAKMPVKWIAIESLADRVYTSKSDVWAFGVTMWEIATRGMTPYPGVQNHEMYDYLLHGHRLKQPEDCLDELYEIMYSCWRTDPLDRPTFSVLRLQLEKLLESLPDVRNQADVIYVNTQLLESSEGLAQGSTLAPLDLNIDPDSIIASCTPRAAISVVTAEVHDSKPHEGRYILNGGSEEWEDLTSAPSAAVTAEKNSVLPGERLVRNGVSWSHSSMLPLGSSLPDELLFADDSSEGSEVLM
- METHOD_DESCRIPTION: HTRF assay, inhibitory activity against tyrosine kinase Mer
- Format: biochemical
- ASSAY_CONDITIONS: ATP at Km (30 μM), two duplicate wells
Form field: IC50 (one value per entry).
Please answer using a numeric value trailed by its unit.

Q: Which IC50 reading was recorded for the compound CC(C)n1cc(C(=O)Nc2ccc(-c3cc(-c4cnn(C)c4)cnc3N)c(F)c2)c(=O)c(-c2ccc(F)cc2)c1C#N [Example 4] ?
A: 0.78 nM

Q: Which IC50 reading was recorded for the compound CCn1cc(-c2cnc(N)c(-c3ccc(NC(=O)c4cn(C(C)C)c(C#N)c(-c5ccc(F)cc5)c4=O)cc3F)c2)cn1 [Example 3] ?
A: 1.11 nM

---

- TESTED_TARGET: tyrosine kinase Tyro3 (Homo sapiens, UniProt Q06418)
- Construct: purchased Carna 08-109
- Sequence (Q06418 453-890 limits assumed): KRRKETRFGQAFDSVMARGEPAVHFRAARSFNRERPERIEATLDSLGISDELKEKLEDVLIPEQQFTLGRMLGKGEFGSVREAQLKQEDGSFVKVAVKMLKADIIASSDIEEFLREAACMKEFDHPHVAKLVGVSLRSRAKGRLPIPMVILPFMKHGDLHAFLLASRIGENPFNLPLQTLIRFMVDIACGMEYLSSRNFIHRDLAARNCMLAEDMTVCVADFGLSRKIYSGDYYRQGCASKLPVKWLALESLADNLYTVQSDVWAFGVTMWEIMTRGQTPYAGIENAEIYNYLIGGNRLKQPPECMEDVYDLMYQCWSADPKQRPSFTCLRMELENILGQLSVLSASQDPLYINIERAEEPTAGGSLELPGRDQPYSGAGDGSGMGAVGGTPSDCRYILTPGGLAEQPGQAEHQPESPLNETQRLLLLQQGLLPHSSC
- METHOD_DESCRIPTION: HTRF assay, inhibitory activity against tyrosine kinase Tyro3
- Assay type: biochemical
- ASSAY_CONDITIONS: ATP at Km (50 μM), two duplicate wells
MEASURED_PARAMETER: IC50
Please answer using a numeric value trailed by its unit.

Q: Which IC50 reading was recorded for the compound CCn1cc(-c2cnc(N)c(-c3ccc(NC(=O)c4cn(C(C)C)c(C#N)c(-c5ccc(F)cc5)c4=O)cc3F)c2)cn1 [Example 3] ?
A: 2.27 nM

Q: Which IC50 reading was recorded for the compound CCn1cc(-c2cnc(N)c(-c3ccc(NC(=O)c4cn(C5CC5)c(C#N)c(-c5ccc(F)cc5)c4=O)cc3F)c2)cn1 [Example 10] ?
A: 30.2 nM

Q: Which IC50 reading was recorded for the compound CCn1cc(-c2cnc(N)c(-c3ccc(NC(=O)c4cn(C5CCC5)c(C#N)c(-c5ccc(F)cc5)c4=O)cc3F)c2)cn1 [Example 9] ?
A: 3 nM

Q: Which IC50 reading was recorded for the compound CC(C)n1cc(C(=O)Nc2ccc(-c3cc(-c4cnn(C5CCNCC5)c4)cnc3N)c(F)c2)c(=O)c(-c2ccc(F)cc2)c1C#N [Example 2] ?
A: 1.18 nM

Q: Which IC50 reading was recorded for the compound COc1cc2nccc(Oc3ccc(NC(=O)c4cn(C(C)C)c(=O)n(-c5ccc(F)cc5)c4=O)cc3F)c2cc1OC [RXDX-106, reference compound] ?
A: 3.3 nM

Q: Which IC50 reading was recorded for the compound CC(C)n1cc(C(=O)Nc2ccc(-c3cc(-c4cnn(C)c4)cnc3N)c(F)c2)c(=O)c(-c2ccc(F)cc2)c1C#N [Example 4] ?
A: 2.67 nM

Q: Which IC50 reading was recorded for the compound COc1cc2nccc(Oc3ccc(NC(=O)c4cn(C(C)C)c(C#N)c(-c5ccc(F)cc5)c4=O)cc3F)c2cc1OC [Example 24] ?
A: 15.5 nM

Q: Which IC50 reading was recorded for the compound [2H]C([2H])([2H])n1cc(-c2cnc(N)c(-c3cc(F)c(NC(=O)c4cn(C(C)C)c(C#N)c(-c5ccc(F)cc5)c4=O)cc3F)c2)cn1 [Example 34] ?
A: 1.16 nM

Q: Which IC50 reading was recorded for the compound COc1ccc(-c2cnc(N)c(-c3ccc(NC(=O)c4cn(C(C)C)c(C#N)c(-c5ccc(F)cc5)c4=O)cc3F)c2)cc1OC [Example 1] ?
A: 7.51 nM

Q: Which IC50 reading was recorded for the compound CC(C)n1cc(C(=O)Nc2ccc(-c3cc(-c4cnn(C5CCN(C)CC5)c4)cnc3N)c(F)c2)c(=O)c(-c2ccc(F)cc2)c1C#N [Example 7] ?
A: 1.77 nM

Q: Which IC50 reading was recorded for the compound CC(C)n1cc(C(=O)Nc2cc(F)c(-c3cc(-c4cnn(C)c4)cnc3N)cc2F)c(=O)c(-c2ccc(F)cc2)c1C#N [Example 6] ?
A: 1.8 nM

Q: Which IC50 reading was recorded for the compound CCn1cc(-c2cnc(N)c(-c3cc(F)c(NC(=O)c4cn(C(C)C)c(C#N)c(-c5ccc(F)cc5)c4=O)cc3F)c2)cn1 [Example 33] ?
A: 0.5 nM
